Values from BindingDB's records for doi:10.7270/Q2ZC817P

# testSystem: Sphingosine 1-phosphate receptor 1 (Homo sapiens)
# Sequence (P21453 whole entry): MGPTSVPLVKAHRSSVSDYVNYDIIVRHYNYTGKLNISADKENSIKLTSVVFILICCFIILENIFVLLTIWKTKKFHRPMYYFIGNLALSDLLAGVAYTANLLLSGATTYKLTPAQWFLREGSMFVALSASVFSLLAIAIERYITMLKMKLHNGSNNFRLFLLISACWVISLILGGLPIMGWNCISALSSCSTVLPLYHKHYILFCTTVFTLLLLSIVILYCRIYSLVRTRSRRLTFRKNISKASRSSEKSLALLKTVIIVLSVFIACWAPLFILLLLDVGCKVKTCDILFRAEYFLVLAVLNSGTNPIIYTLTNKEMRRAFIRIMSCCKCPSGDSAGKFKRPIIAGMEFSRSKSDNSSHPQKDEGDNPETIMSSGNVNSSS
# assay: potentiators of S1P1 agonist response, dose response, cell-based, potentiator mode, 60K MLSMR set (AID 466)
# experimentalContext: inactive by the depositor's call
Each item that follows carries a reported EC50.
Your answer is read as µM, so omit the unit and give the number.

# compound, unitAbbreviation, EC50
measured = [
    ("O=C(CSCC(=O)N1CCCCC1)Nc1nc(-c2cccs2)cs1", "µM", 45.2),
]

Request the reported EC50 associated with `Oc1ccc(N2CCN(c3ncnc4sc5c(c34)CCC5)CC2)cc1`
10.6

Follow-up entry: `Cc1ccc2nc(C(F)(F)F)c(C#N)c(N)c2c1`
12

Follow-up entry: `Nn1c(Nc2ccccc2)nc2sc3c(c2c1=O)CCC3`
21.7

Follow-up entry: CCCn1c(NC(=O)c2cccc(S(=O)(=O)N3CCCC3)c2)nc2ccccc21 [MLS000057540]
10.3

Follow-up entry: `CCCCOc1ccc(S(=O)(=O)n2c(C)nc3ccccc32)cc1`
28.9

Follow-up entry: `Clc1ccc(-c2nc3nc4ccccc4nc3n2Cc2ccco2)cc1`
16.6

Follow-up entry: `Cc1ccc(C(=O)c2cncc(Br)c2)cc1`
12.6

Follow-up entry: CCN(CC)C(=O)Oc1ccc2c(=O)c(-c3ccc(OC)cc3)coc2c1 [MLS000083046]
10.9

Follow-up entry: `Cc1cc(C(=O)COC(=O)c2csc3c2CCCC3)c(C)n1C`
17.5

Follow-up entry: CCCC(=O)Nc1ccc(-c2nc3cc(C)c(C)cc3o2)cc1 [MLS000089940]
10.8

###

Each item that follows carries a reported pEC50.
# testSystem: UniProtKB P21453
# assay: potentiators of S1P1 agonist response, dose response, cell-based, potentiator mode, 60K MLSMR set (AID 466)
Give only the number. pEC50 is defined as minus log10 of concentration in molar units.

Known pEC50 results, listed for orientation:
# compound, testReadout, number
rows = [
    ("CCCC(=O)N1CCN(c2ccc(NC(=O)c3cc4ccccc4o3)cc2Cl)CC1", "pEC50", 5.06),
    ("O=C(Nc1ccccc1C(F)(F)F)c1cc(-c2ccc(O)cc2)on1", "pEC50", 6.11),
    ("O=C(c1cc(-c2ccc(O)cc2)on1)N1CCc2ccccc2C1", "pEC50", 5.39),
    ("CCc1cc2c(N3CCN(c4ccccc4)CC3)ncnc2s1", "pEC50", 5.09),
    ("Cc1nnc(SCC(=O)N2CCC(c3noc4ccc(F)cc34)CC2)s1", "pEC50", 5.09),
]

Next item in the queue.
Request the reported pEC50 associated with CCOC(=O)c1c(C)[nH]c(C(=O)C(C)OC(=O)c2cccc(OCc3c(C)noc3C)c2)c1C (stereo not given)
5.34

###

# testSystem: Sphingosine 1-phosphate receptor 1 (Homo sapiens)
# assay: potentiators of S1P1 agonist response, dose response, cell-based, potentiator mode, 60K MLSMR set (AID 466)
Checkbox rule: EC50 lower than 9 µM = Criterion met; EC50 not lower than 9 µM = Criterion not met.

Example results:
# compound, assignedClass
data = [
    ("CCCc1ccc(Oc2c[nH]nc2-c2ccc(O)cc2O)cc1", "Criterion not met"),
    ("COc1ccc(S(=O)(=O)Cc2ccc(C(=O)N3CCN(c4cccc(C)c4C)CC3)o2)cc1", "Criterion not met"),
    ("COCCn1c(C)cc(C(=O)CSc2nc3ccccc3o2)c1C", "Criterion not met"),
    ("Cn1c(C(=O)N2CCCc3ccccc32)cc2sccc21", "Criterion met"),
    ("O=C(c1ccc(F)cc1)C(CN1CCOCC1)c1ccccc1 (configuration not stated)", "Criterion not met"),
]

Identify whether the compound `CCC(NC(=O)Nc1nnc(C(F)(F)F)s1)(C(F)(F)F)C(F)(F)F` records EC50 below 9 µM.
Criterion not met

Follow-up entry: O=C(NCc1ccc2c(c1)OCO2)C1CC(=O)N(C2CCCCCCC2)C1 (configuration not stated)
Criterion not met

Follow-up entry: O=C(c1ccccc1)C(CCC(CN1CCOCC1)C(=O)c1ccccc1)CN1CCOCC1 (configuration not stated)
Criterion met

Follow-up entry: `CC(=O)c1c(C)[nH]c(C(=O)OCCCCN2C(=O)c3ccccc3C2=O)c1C`
Criterion met

Follow-up entry: `c1ccc(CSc2nnc(-c3c[nH]c4ccccc34)o2)cc1`
Criterion met

Follow-up entry: `Fc1ccc2[nH]c3c(N4CCN(c5ccccc5)CC4)ncnc3c2c1`
Criterion not met
